# credit: the supplement of paper PMC7156485

tested on: HCC1569; assay: H1.0 immunofluorescence intensity relative to DMSO (% of DMSO); higher = stronger H1.0 induction, active = 140 or more; conditions: concentration: 10 µM; 24 h;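 note: TDF is a line of transformed human dermal fibroblasts of mesenchymal origin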
Could you please pick one outcome from this set? 1 (yes) (active), 0 (no) (inactive)

Previously resolved entries follow.
- compound: "COc1cc2nc(N3CCN(C(=O)c4ccco4)CC3)nc(N)c2cc1OC.Cl [Prazosin hydrochloride]"
  target of assay: "HCC1569"
  label class: "0 (no)"
- compound: "O=C(Nc1cccc(Nc2cc(Nc3cccc(C(F)(F)F)c3)ncn2)c1)C1CC1 [EGFR Inhibitor]"
  target of assay: "HCC1569"
  label class: "1 (yes)"
- compound: "CCCC1CC(C(=O)NC(C(C)Cl)C2OC(SC)C(O)C(O)C2O)N(C)C1.Cl (configuration not stated) [Clindamycin.HCl]"
  target of assay: "HCC1569"
  label class: "0 (no)"
- compound: "CC(=O)OCC(=O)NCCCOc1cccc(CN2CCCCC2)c1.Cl [Roxatidine acetate.HCl]"
  target of assay: "HCC1569"
  label class: "0 (no)"
- compound: "CC1(C)CC(NC(=O)C(=O)Nc2ccc(Cl)cc2)CC(C)(C)N1"
  target of assay: "HCC1569"
  label class: "0 (no)"

IN: Which outcome was assigned to Nc1nc(Cl)nc2c1ncn2C1OC(CO)C(O)C1O (configuration not stated) [2-Chloroadenosine] in this test?
OUT: 0 (no)

IN: Please state the recorded outcome for this compound: O=C(O)CN(CCN(CC(=O)O)CC(=O)O)CCN(CC(=O)O)CC(=O)O [Diethylenetriaminepentaacetic acid]
OUT: 0 (no)

IN: // param item: CC(=O)c1ccc(N2CCOCC2)cc1O [DNA-PK Inhibitor III] ; yields the recorded call
OUT: 0 (no)

IN: Any idea what this test logged for CN(C)CCCN1c2ccccc2Sc2ccc(Cl)cc21.Cl [Chlorpromazine.HCl] ?
OUT: 0 (no)

IN: Please state the recorded outcome for this compound: N[C@@H](CC(=O)O)C(=O)O [L-Aspartic acid]
OUT: 0 (no)

IN: Identify the outcome logged in this assay for the compound shown: NC(=S)c1ccc[n+](C2OC(COP(=O)([O-])OP(=O)(O)OCC3OC(n4cnc5c(N)ncnc54)C(OP(=O)([O-])O)C3O)C(O)C2O)c1.[Na+] (configuration not stated) [Thio-NADP sodium]
OUT: 0 (no)
